system: hGIP-R (Homo sapiens, UniProt P48546)
Construct: expressed in transfected cells; host or cells: HEK-293 clonal cell lines
Sequence (P48546 22-466): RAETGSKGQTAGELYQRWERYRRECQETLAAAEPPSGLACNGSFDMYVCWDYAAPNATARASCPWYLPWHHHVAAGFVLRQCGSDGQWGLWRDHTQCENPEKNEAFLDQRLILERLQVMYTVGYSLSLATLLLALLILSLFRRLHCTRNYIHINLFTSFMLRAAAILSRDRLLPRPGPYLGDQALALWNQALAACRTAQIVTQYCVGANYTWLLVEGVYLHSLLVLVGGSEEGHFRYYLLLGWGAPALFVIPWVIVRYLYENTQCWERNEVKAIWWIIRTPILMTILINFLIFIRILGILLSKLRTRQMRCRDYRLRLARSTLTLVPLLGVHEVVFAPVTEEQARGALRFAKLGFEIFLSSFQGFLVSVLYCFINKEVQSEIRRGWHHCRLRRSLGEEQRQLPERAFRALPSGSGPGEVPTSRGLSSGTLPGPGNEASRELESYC
experiment: Functional hGIP-R Assay (cAMP formation, HTRF)
Type: cell-based
assayContext: cAMP efficacy; percent of maximal response to GIP(1-42)OH; 37° C., 0.1% bovine casein; arithmetic mean ± SEM
observedProperty: Emax (%)

compound	system	Emax (%)
CC(C)(Cc1ccc(F)cn1)NC(=O)[C@@H](Cc1cnc2ncccn12)NC(=O)[C@H]1C[C@@H]1c1ccc(-c2cnc3nc(C(F)(F)F)cn3c2)cc1	hGIP-R (Homo sapiens, UniProt P48546)	87
[2H]C([2H])([2H])n1cc(C[C@H](C(=O)NC(C)(C)Cn2nc(C(F)(F)F)cc2-c2ccc(C(C)(C)O)nc2)N2CC[C@@]3(C[C@@H]3c3ccc(-c4cnc5nn(C6CC6)cc5c4)nc3C)C2=O)cn1	hGIP-R (Homo sapiens, UniProt P48546)	80.2

I: [2H]C([2H])([2H])N(C(=O)[C@H]1C[C@@H]1c1ccc(-c2cnc3nn(C)cc3c2)nc1C(F)(F)F)[C@H](Cc1cnn(C(F)F)c1)C(=O)NC(C)(C)Cn1nc(C(F)(F)F)cc1-c1cc(F)c(=O)n(C)c1
II: CC(=O)N1CCN(c2ccc(C3CC34CCN([C@H](Cc3cnn(C(F)F)c3)C(=O)NC(C)(C)Cn3nc(C(F)(F)F)cc3-c3cnc(C)nc3)C4=O)c(C(F)(F)F)n2)CC1 (single isomer, unassigned; isomer 1)
III: CN(C(=O)[C@H]1C[C@@H]1c1ccc(-c2cnc3nccn3c2)cc1)[C@H](Cc1cnn(C)c1)C(=O)NC(C)(C)Cn1nc(C(F)(F)F)cc1-c1ccc(=O)n(C)c1
In: Ascending by Emax, please. Submit the labels in the order that the ranking request calls for.
Out: II, I, III
(II: 23.1%, I: 74.6%, III: 113%)

---

system: hGIP-R (Homo sapiens)
Construct: expressed in transfected cells; host or cells: HEK-293 clonal cell lines
experiment: Functional hGIP-R Assay (cAMP formation, HTRF)
Assay type: cell-based
assayContext: cAMP efficacy; percent of maximal response to GIP(1-42)OH; 37° C., 0.1% bovine casein; arithmetic mean ± SEM
observedProperty: Emax (%)

A: Cn1cc(C[C@@H](NC(=O)[C@H]2C[C@@H]2c2ccc(-c3cnc4nn(C)cc4c3)cc2)C(=O)NC(C)(C)Cn2nc(C(F)(F)F)cc2-c2ccc(=O)[nH]c2)cn1 [Example 59]
B: Cn1cc2cc(-c3ccc(C4CC45CCN([C@H](Cc4cnn(C(F)F)c4)C(=O)NC(C)(C)Cn4nc(C(F)(F)F)cc4-c4ccc(=O)n(C)c4)C5=O)c(C(F)(F)F)n3)cnc2n1 (single isomer, unassigned; isomer 1) [Example 113]
In: Looking at recorded values for Emax, does A or B come in lower? Returns: label corresponding to the selected item.
Out: B
(B: 45.5%, A: 122%)

---

system: hGIP-R (Homo sapiens, UniProt P48546)
Construct: expressed in transfected cells; host or cells: HEK-293 clonal cell lines
experiment: Functional hGIP-R Assay (cAMP formation, HTRF)
Type: cell-based
assayContext: cAMP efficacy; percent of maximal response to GIP(1-42)OH; 37° C., 0.1% bovine casein; arithmetic mean ± SEM
observedProperty: Emax (%)

Examples with their reported Emax follow.
compound	system	readoutUnit	Emax
CC(C)(Cn1cc(C(F)(F)F)cn1)NC(=O)[C@@H](Cc1cnc2ncccn12)NC(=O)[C@H]1C[C@@H]1c1ccc(-c2cnc3nc(C4(C)CC4)cn3c2)cc1	hGIP-R (Homo sapiens, UniProt P48546)	%	117
CN(C(=O)[C@H]1C[C@@H]1c1ccc(NC(=O)Nc2ccc(F)cc2)cc1)[C@H](Cc1cnn(C)c1)C(=O)NC(C)(C)Cc1ccc(F)cc1	hGIP-R (Homo sapiens, UniProt P48546)	%	94

P: Cn1cc(-c2cc(C(F)(F)F)nn2CC(C)(C)NC(=O)[C@@H](Cc2cnn(C(F)F)c2)N2CCC3(CC3c3ccc4cnn(C)c4c3)C2=O)cc(F)c1=O (single isomer, unassigned)
Q: Cc1nc(-c2cnc3nc(C4CC4)cn3c2)ccc1[C@H]1C[C@@]12CCN([C@H](Cc1cnn(C(F)F)c1)C(=O)NC(C)(C)Cn1nc(C(F)(F)F)cc1-c1ccc(C(C)(C)O)nc1)C2=O
In: Looking at recorded values for Emax, does P or Q come in lower? Returns: label corresponding to the selected item.
Out: P
